Here the recorded % of Wild-Type Signal is given for each entry.
- System: Gβ1γ2 (Gβ1 mutants) (UniProt P54311+P63212, W332A)
- Construct: made in house; host or cells: Sf9 insect cells (baculovirus), partially purified via (His)6-Gαi1 on Ni-NTA
- Measurement Description: Phage ELISA: binding of peptide-displaying phage to wild-type or alanine-substituted b-βγ
- Parameters: species or system rat
- Experimental Parameters: Gβ1 Trp332Ala; mean ± SD
- Description: Wild-type Gβ1 and Gp1 mutants were made in the baculovirus vector PDW464 which encodes a biotinylation site at a lysine upstream of the amino terminus of Gβ1 (Goubaeva, et al. (2003) supra). Mutants were generated by overlap extension PCR using standard protocols. The wild-type and mutant Gβ1 constructs consisted of a 20 amino acid biotin acceptor peptide (BAP) sequence fused in-frame with the amino-terminus of rat Gβ1 subunit. […]

- Residue String: "SIGKALFILGYPDYD [Compound 3.14]"
  Unit Info: "%"
  % of Wild-Type Signal: 7.1
- Residue String: "SCKRTKAQILLAPCT [Compound C1]"
  Unit Info: "%"
  % of Wild-Type Signal: "−0.3"
- Residue String: "LCSKAYLLLGQTC [Compound 2F]"
  Unit Info: "%"
  % of Wild-Type Signal: "−1.5"
- Residue String: "WCPPKAMTQLGIKAC [Compound C14]"
  Unit Info: "%"
  % of Wild-Type Signal: 1.6
- Residue String: "WCPPKLEQWYDGCA [Compound C2]"
  Unit Info: "%"
  % of Wild-Type Signal: 4.7
- Residue String: "SCARFFGTPGCT [Compound C8]"
  Unit Info: "%"
  % of Wild-Type Signal: 0.7
- Residue String: "SCEKRLGVRSCT (phage-displayed) [Compound C5]"
  Unit Info: "%"
  % of Wild-Type Signal: 3.2
- Residue String: "SCEKRYGIEFCT [Compound C4]"
  Unit Info: "%"
  % of Wild-Type Signal: 1.7
- Residue String: "SCGHGLKVQSTIGACA [Compound 3C]"
  Unit Info: "%"
  % of Wild-Type Signal: "−0.3"

----------
- Test system: PLCβ2
- Measurement Description: Gβ1γ2-dependent activation of purified PLCβ2
- Type: biochemical
- Experimental Parameters: Table 3; read-out: PLCβ2 IC50
Here the recorded IC50 is given for each entry.

- Compound: "Nc1ccc(Nc2cc(S(=O)(=O)O)c(N)c3c2C(=O)c2ccccc2C3=O)cc1 [drawing 55]"
  IC50: "75 µM"
- Compound: "Nc1ccc(-c2ccc(Nc3cc(S(=O)(=O)O)c(N)c4c3C(=O)c3ccccc3C4=O)cc2)c(S(=O)(=O)O)c1 [drawing 57]"
  IC50: "> 30 µM"
- Compound: "Nc1cccc(Nc2cc(S(=O)(=O)O)c(N)c3c2C(=O)c2ccccc2C3=O)c1 [drawing 56]"
  IC50: "14 µM"

----------
- System: Gβ1γ2 (UniProt P54311+P63212)
- Measurement Description: Competition phage ELISA: inhibition of SIGK-phage binding to immobilized biotinylated Gβ1γ2
- Set-up: made in house; host or cells: Sf9 insect cells (baculovirus; co-expressed with BirA and (His)6-Gαi1, from which βγ was eluted); species or system rat
- Experimental: Phage ELISA assays used to assess peptide binding to wild-type and mutant b-βγ were performed according to standard methods (Smrcka and Scott (2002) Methods Enzymol. 344:557-76). […] The wells were washed, followed by the addition of 40 μL of (2,2′-Azino-bis (3-ethylbenzthiazoline)-6-sulfonic acid (ABTS) and the colorimetric reaction was monitored at 405 nm. Nonspecific binding was subtracted for each reading. […]

- Compound: "O=C(O)c1ccccc1-c1c2ccc(=O)c(O)c-2oc2c(O)c(O)ccc12 (racemic) [Gallein]"
  IC50 / nM: 200
